Test system: HT-29
test name: NCI tumour cell line growth inhibition, 48 h
Calls of active or inactive are those of the source. Cut-off read from the data, not from the text of the source: active = GI50 up to about 1.1 µM and inactive = higher.
readout label: GI50

Observe how each entry below is paired with its result.
>  <compound>
CN(C(=O)C12C3C4C1C1C2C3C41C(N)=O)C(C)(C)C (stereo unspecified)

>  <reported>
> 100 µM (inactive)

$$$$
>  <compound>
N#CCCN(CCN(CCC#N)C(=O)Nc1ccccc1)C(=O)Nc1ccccc1

>  <reported>
> 100 µM (inactive)

$$$$
>  <compound>
N/C(=N\c1ccccc1Cl)c1ccccc1N

>  <reported>
> 100 µM (inactive)

$$$$

Log: HT-29, compound "CCCCCCCCOCC1S(=O)(=O)OCCOS1(=O)=O" , GI50 = > 100 µM (inactive)

# lookup: "O=c1c2c(oc3ccccc13)-c1ccccc1OC2" on HT-29, GI50 = > 100 µM (inactive)

Sample COC(=O)c1ccccc1C1CN=NC12Cc1c(C)cccc1C2=O (stereo unspecified) , system: HT-29. Its GI50 is > 100 µM (inactive)

Reported GI50 (HT-29) for entry "CCOC(=O)/C(C#N)=C1/Sc2c(ncn(/N=C/c3ccc(OC)cc3)c2=O)N1c1ccccc1" is 70.6 µM (inactive)
